Target: Amine oxidase [copper-containing] 3 (Bos taurus, UniProt Q9TTK6)
Assay: Inhibition of bovine plasma VAP-1 using 6-(5-Pheny1-2H-tetrazol-2-yl)hexan-1-amine as substrate measured after 30 mins by UV-HPLC analysis
Format: cell-free
In this section, each of the compounds is paired with its reported IC50.
I only need the number, in µM, no unit after it.

Example entries begin here.
COc1ccc(-c2nnn(CCCCCCNC(=O)CN)n2)cc1 ... 6.2
NCC(=O)NCCCCCCn1cc(-c2ccccc2)cn1 ... 6.9

Asked: Provide the documented IC50 with Amine oxidase [copper-containing] 3 (Bos taurus, UniProt Q9TTK6) as the system for NCC(=O)NCCCCCCn1nnc(-c2ccsc2)n1
Given back: 6.3

---

Target: Amine oxidase [copper-containing] 3 (Bos taurus) (UniProt Q9TTK6)
Assay: Inhibition of bovine plasma VAP-1 using 6-(5-Pheny1-2H-tetrazol-2-yl)hexan-1-amine as substrate at 10 uM measured after 30 mins by UV-HPLC analysis relative to control
Assay type: cell-free
Activity calls are given as the source filed them. No cut-off for these calls is given here.
reported property: inhibition

Example entries begin here.
CN(Cc1cccc(Cn2nnc(-c3ccccc3)n2)c1)C(=O)CN ... 43%
NCC(=O)NCCCCCCn1cnc(-c2ccccc2)c1 ... 41%
NCC(=O)NCCCCCCn1nnc(-c2ccc(C(=O)O)cc2)n1 ... inactive
NCC(=O)NCCn1nnc(-c2ccccc2)n1 ... inactive
NCC(=O)NCc1ccccc1Cn1nnc(-c2ccccc2)n1 ... 30%

Asked: Endpoint output: inhibition of NCC(=O)NCCCCn1nnc(-c2ccccc2)n1 . Value?
Given back: 14%

Asked: Endpoint output: inhibition of NCC(=O)NCCCCCCn1ccc(-c2ccccc2)n1 . Value?
Given back: 42%

Asked: Endpoint output: inhibition of NCC(=O)NCCCn1nnc(-c2ccccc2)n1 . Value?
Given back: 13%

Asked: Endpoint output: inhibition of NCC(=O)NCCCCCCn1nnc(-c2cccnc2)n1 . Value?
Given back: 44%

Asked: Endpoint output: inhibition of NCC(=O)Nc1ccc(CCn2nnc(-c3ccccc3)n2)cc1 . Value?
Given back: 20%

---

Molecular target: UniProt:Q9TTK6
Assay: Inhibition of bovine plasma VAP-1 using 6-(5-Pheny1-2H-tetrazol-2-yl)hexan-1-amine as substrate measured after 30 mins by UV-HPLC analysis
Type: cell-free
reported property: pIC50
Notebook: values listed as pIC50 are -log10 of the concentration (mol/L).

Example entries begin here.
NCC(=O)NCc1ccc(Cn2nnc(-c3ccccc3)n2)cc1 ... 5.04
CS(=O)(=O)c1ccc(-c2nnn(CCCCCCNC(=O)CN)n2)cc1 ... 5.64

Asked: Endpoint output: pIC50 of NCC(=O)NCCCCCCn1ncc(-c2ccccc2)n1 . Value?
Given back: 5.21

---

Target: Amine oxidase [copper-containing] 3 (Bos taurus, UniProt Q9TTK6)
Sequence (Q9TTK6 whole entry): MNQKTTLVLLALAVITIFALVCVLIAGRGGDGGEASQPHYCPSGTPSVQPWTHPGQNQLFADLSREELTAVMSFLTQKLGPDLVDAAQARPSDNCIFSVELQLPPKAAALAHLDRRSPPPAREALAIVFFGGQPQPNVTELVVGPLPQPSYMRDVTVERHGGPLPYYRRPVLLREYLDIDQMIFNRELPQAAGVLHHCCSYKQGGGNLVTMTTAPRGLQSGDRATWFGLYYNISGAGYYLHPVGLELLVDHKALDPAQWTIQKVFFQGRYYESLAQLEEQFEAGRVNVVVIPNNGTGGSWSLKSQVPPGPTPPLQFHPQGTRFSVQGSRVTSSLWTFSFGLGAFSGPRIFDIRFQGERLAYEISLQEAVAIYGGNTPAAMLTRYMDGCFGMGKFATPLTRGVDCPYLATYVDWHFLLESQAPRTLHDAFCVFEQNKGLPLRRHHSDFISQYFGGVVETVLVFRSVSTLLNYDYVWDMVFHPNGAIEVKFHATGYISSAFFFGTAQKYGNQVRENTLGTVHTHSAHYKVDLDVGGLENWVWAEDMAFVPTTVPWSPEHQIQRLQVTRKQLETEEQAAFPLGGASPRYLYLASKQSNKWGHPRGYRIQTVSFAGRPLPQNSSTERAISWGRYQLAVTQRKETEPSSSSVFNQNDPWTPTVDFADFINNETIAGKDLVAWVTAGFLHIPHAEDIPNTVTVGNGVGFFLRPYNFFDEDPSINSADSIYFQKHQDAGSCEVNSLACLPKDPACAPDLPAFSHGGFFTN
Experiment: Inhibition of bovine plasma VAP-1 using 6-(5-Pheny1-2H-tetrazol-2-yl)hexan-1-amine as substrate preincubated with enzyme for 15 mins followed by substrate addition measured after 30 mins by UV-HPLC analysis
Format: cell-free
In this section, each of the molecules is paired with its reported pIC50.
Notebook: values listed as pIC50 are -log10 of the concentration (mol/L).

NCC(=O)NCCCCCCn1nnc(-c2cccs2)n1 ... 5.11
Cl.NCC(=O)NCc1cccc(Cn2nnc(-c3ccccc3)n2)c1 ... 6.80

Asked: Endpoint output: pIC50 of COc1ccc(-c2nnn(CCCCCCNC(=O)CN)n2)cc1 . Value?
Given back: 5.20

Asked: Endpoint output: pIC50 of CS(=O)(=O)c1ccc(-c2nnn(CCCCCCNC(=O)CN)n2)cc1 . Value?
Given back: 5.35

Asked: Endpoint output: pIC50 of NCC(=O)NCc1ccc(Cn2nnc(-c3ccccc3)n2)cc1 . Value?
Given back: 5.23

Asked: Endpoint output: pIC50 of NCC(=O)NCCCCCCCn1nnc(-c2ccccc2)n1 . Value?
Given back: 5.18

Asked: Endpoint output: pIC50 of NCC(=O)NCCCCCCn1nnc(-c2ccsc2)n1 . Value?
Given back: 5.17

Asked: Endpoint output: pIC50 of NCC(=O)NCCCCCCn1nnc(-c2ccc(Cl)cc2)n1 . Value?
Given back: 5.37

Asked: Endpoint output: pIC50 of NCC(=O)NCCCCCCn1ncc(-c2ccccc2)n1 . Value?
Given back: 5.15

Asked: Endpoint output: pIC50 of Cc1ccc(-c2nnn(CCCCCCNC(=O)CN)n2)cc1 . Value?
Given back: 5.29
